- Tested on: p38-alpha;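 also: KINOMEscan kinase panel screen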
- Construct: gene MAPK14
- testParameters: concentration: 1 μM, replicates: in singlicate; n = 1
Quick reference for %Inh among some compounds
Answer in %, number only, no unit symbol.

Consider the worked cases shown below.
{"compound": "COc1cc2ncnc(Nc3ccc4nc(-c5ccccc5)[nH]c4c3)c2cc1OC.Cl", "readoutType": "%Inh", "resultUnits": "%", "observed": 1}
{"compound": "COC(=O)c1c(-c2ccccc2)c2cc(C(=O)O)ccc2c(=O)n1Cc1ccccc1", "readoutType": "%Inh", "resultUnits": "%", "observed": 24}
{"compound": "O=C(Nc1n[nH]c2nc(-c3nccs3)c(Br)cc12)C1CC1", "readoutType": "%Inh", "resultUnits": "%", "observed": 0}

### Prompt Look up %Inh: Cl.c1ccc(-c2n[nH]cc2-c2ccnc(-c3ccc(CN4CCOCC4)cc3)c2)nc1
### Response 17

### Prompt Look up %Inh: O=C(O)COc1ncnc2cc(-c3ccc4[nH]ncc4c3)sc12
### Response 20

### Prompt Look up %Inh: Cc1ccc(NC(=O)Nc2cc(C(C)(C)C)nn2-c2ccccc2)cc1
### Response 99.7

### Prompt Look up %Inh: CCn1c(-c2ccccn2)nc2cnccc21
### Response 0

### Prompt Look up %Inh: Cc1c(O)cccc1Nc1ccnc2ccc(C(F)(F)F)cc12.Cl
### Response 0

### Prompt Look up %Inh: Cc1nnc(-c2ccc3occ(-c4ccc(S(C)=O)cc4)c3c2)[nH]1 (stereo not shown)
### Response 13

### Prompt Look up %Inh: COc1ccc2nc(-c3cccc(C)n3)nc(Nc3ccncc3)c2c1
### Response 58

### Prompt Look up %Inh: CC(C)(C)c1ccc(C(=O)Nc2cn3cc(Cl)ccc3n2)cc1
### Response 0

### Prompt Look up %Inh: O=C(Nc1n[nH]c2nc(-c3nccs3)c(Br)cc12)C1CCCC1
### Response 0

### Prompt Look up %Inh: Fc1cc(Cl)ccc1Nc1ccnc2cc(I)ccc12
### Response 30
